- Tested on: HepG-2 cell line
- Assay comment: MTT cytotoxicity assay, HepG-2
- Type: cell-based, human
- Assay setup: Homo sapiens, HepG2, 24 h, read-out: In vitro cytotoxic activity IC50 HepG-2
Measure: IC50

Use these answered entries as a reference point.
CCOC(=O)c1ccc(-n2c(-c3ccc(C)cc3)cc(-c3ccc(O)cc3)c(C#N)c2=O)cc1: 14.9 µM
CCOC(=O)c1ccc(-n2c(C)cc(/C=C/c3ccc(OC)cc3)c(C#N)c2=O)cc1: 78.2 µM
COc1cccc2c1C(=O)c1c(O)c3c(c(O)c1C2=O)C[C@@](O)(C(=O)CO)C[C@@H]3O[C@H]1C[C@H](N)[C@H](O)[C@H](C)O1 [Doxorubicin, reference compound]: 4.5 µM

HepG-2 cell line IC50 of CCOC(=O)c1ccc(-n2c(C)cc(/C=C/c3ccc(OCC)cc3)c(C#N)c2=O)cc1 is 63.1 µM

All figures here come from paper PMC10069231.
